Please respond with reported protease stability score for every item in the list.
assay: protease stability score; higher = more stable; yeast display proteolysis, trypsin and chymotrypsin;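 further: log10 excess protease needed over predicted unfolded state with 0 meaning unfolded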
Give the figure by itself; no unit, no explanation.

Dear colleague, I am looking for the recorded protease stability score of the following sequence: DEKEQEDFARSFIEAFRTNDPSQIKTLMDEEATVSVGDKTYHGRKAAEDWATQLKEEVDHIDVKDLKVHNGHIEIEVRLKVNGHTRDYLISIQFHNGRVKRMSVSKQ
-0.432

Dear colleague, I am looking for the recorded protease stability score of the following sequence: DDDAQRVLNEFWRHWRRGNEEELKKLVDPNAQFEVGNKTFHGREHYANYLRRVSEEMTFDINIKDMSVEGDQVVIDATIMVQVNGNPISIKVIWRANATNGKIKYLSLQIDEDMVRQQQS
0.445

Dear colleague, I am looking for the recorded protease stability score of the following sequence: DEERVHQAVRIIKHNDPDKLRKLADPNAKFQVGDREIHGMEEYADIVAQIMEKADKITFTDIQVHNGRLTIEVVINVNGRNIQFQIFLEFHNGKLKHAHIQATSEEVQRQLNSLMG
0.674
